Tested on: K4 kissing-loop RNA reporter;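 further: bound reporter read as fluorescence of individual clusters on recovered sequencing chips by microscopy, with normalized cluster intensities fitted with a binding model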
protocol text: apparent KD of K4 kissing-loop reporter; higher = weaker reporter binding
recorded conditions: Eterna round: R107; input ligand: FMN 200 uM
Threshold rule: apparent KD of K4 kissing-loop reporter greater than or equal to 400 nM is YES; below that, NO.

biosequence | assigned label
UUUUAAAUAUCUGAUACCAGAGAAAAUAUAUGUAGUGAUGUUAUAUACAAAAUAAUUAAGCUCCCUUGGCAGCAGUAUUAAUUUU [AstrosExc-TheB#3] | YES
UACGUAGAGCGAGGAUAUCCUUCCCACGUCGAAGUACCGUGCUUGAUGGAGUGAUGUUCGAUCAGAGGAGAAGGUGCGAAACGUC [Flavin Switch Lower Fold Energy] | YES
AGAGUUAUGCGAGGAUAUGCGGUUAGUACUCAAAGAGUACUAACAGCAGAGUGAUGUUCUGUGAAAGCAGAAGGUGCAUAACUCA [Omei KL FMN B SS B v10] | NO
UUAUCUAUAUUCGAUACCAGUACCCUGUGUGUUGAUCCUUUUAUAAGUGAUGUUUAUGAGUACCCUUGGCAGCGGGUAUGGGUUU [KL-XTheo-B17] | YES
AUGCGCGUGCGAUGUAAAUCGCACGCGCAUCGAGGACCGGUACGGCCGCCACUCGCUCGCGCCGAGUGAUGUUCGGCCGGCGAAC [#2 Same State - Tryptophan A Attempt #5 (HarryS)] | YES
AACGUAGCUACUGAUACCAGACUUUUUCUUGUAUAUUAGUCAAGUGAUGUUUGACUUUUAGUCCCUUGGCAGCAGUUGCUACGAA [JR_Nu_SSTheophyB_Sub028] | NO
AAUUUAUUAACUGAUACCAGACUUAAUAAAUUUUAAAUCACUAGUGAUGUUAGUGAAUAUGUCCCUUGGCAGCAGUAUUUAUUAA [JR_SSTheophyB_Sub023] | NO
CCGGGCGGCUGAAGGAGCGGGCGGGCCCGAGUGAUGUUCGGGUGGGCCGUGAGGUCCGGUGCCCAGGUAGGUCGCGGUUCCGCCC [#2 Same State - Arginine B Attempt #10 (HarryS)] | NO
GCCGUAGAUGGAAGGAGCGAGUCCAAACCAUAUUGCUGAAAAUUCGAGUGAUGUUCGUAAGCUCAGGUAGGUCGCCAUCUACGGC | NO
AGUGAUGUGGGAAGGAGCGCUACAAGACUUCAGUGAUGUUGAAGUGAUGAUUUAGUGUUGUAGCAGGUAGGUCGCCUAGAUGUUA [KL-XARG-B9] | NO
AGUGCACUGUCAGGAUAUAUACAGUGAUGUUGUGUAUGUCAGCAAGUCAAAGACUUGCUGUUCUGUGUAGAAGGGACUGUGUACA [Omei KL FMN B Exc A v3] | YES

====

// reported apparent KD of MS2 coat protein per item
Tested on: MS2 coat protein
protocol text: apparent KD of MS2 coat protein; designed switch direction (-1 OFF switch, 1 ON switch): 1; higher = weaker reporter binding
recorded conditions: input ligand: microRNA oligo, concentration not stated

biosequence | units of measure | apparent KD of MS2 coat protein
GCCAACGCAUGAGGAUAUGGCACCUUAUUGGUGCCAGAAGGUAUGUGUAUUCACAUGAGGAUCACCCAUGUAUUAUAGUUGGCA [Fiskers NG1ss - 17] (Eterna round: R96, puzzle: Same State NG 1) | µM | 0.146
ACCCGCGACGGAGGAUAUGGGCACUCGGCGAAAUAAACCGCCAUAACAUGAGGAUCACCCAUGUCCCAGAAGGCCGCCGCAAAC [Leatve] (Eterna round: R96, puzzle: Same State NG 2) | µM | 0.255
UGACACACGGCAGGAUAUCGAUUCCAAAGGAAUCGAGAAGGGCCUCAUGUCGUGGAAACGUGACAUGAGGAUCACCCAUGUCGC [Omei SS(NG)1 Cv16] (Eterna round: R96, puzzle: Same State NG 1) | µM | 0.00372
UUAGUCAUGUAAGGAUAUGCAGCCGAAACGGCUGCAGAAGGUACUAUAAUUACAUGAGGAUCACCCAUGUUAUAAAAUUUAUAU [Mat - Same State NG 1 - JL mod - D62] (Eterna round: R96, puzzle: Same State NG 1) | µM | 0.0287
UGGCUGGUGCUAGGAUAUGCAUGAGGCAUCCUCGUAGAAGGAGCACGACAUGAGGAUCACCCAUGUAGCCGUCCGUAGACGGCU [salish99_SSNG1_r04_010] (Eterna round: R96, puzzle: Same State NG 1) | µM | 0.348
AGAUCAUGACGAGGAUAUGGUACAUGAGGAUCACCCAUGUAUGUACUAUAAUCCGAAUGAGGAAUCCAGAAGGCGUCGUGGUCA [JL SSNG2 1.14] (Eterna round: R96, puzzle: Same State NG 2) | µM | 0.0941
GGACGUCAUCUCACUGAUUAAACAUGAGGAUCACCCAUGUCACAGGAUAUGAGUCCGAUUAGGACUCAGAAGGGUGUGACGUCC [Fiskers NG3ss - 45] (Eterna round: R96, puzzle: Same State NG 3) | µM | 0.0146
UUGCUCGUGUGAGGAUAUGCAGCCGUUUCGGCUGCAGAAGGUACUAUAAUACAUGAGGAUCACCCAUGUCUCUGUUGUUUUGUG [salish99_SSNG1_r04_929] (Eterna round: R96, puzzle: Same State NG 1) | µM | 0.0208
CUGAGCAAGCAAGGAUAUCACGUCGUUUAGACGUGAGAAGGUGCUCCUUACAUGAGGAUCACCCAUGUAUAACAUGAAGCUCAG [SSNG1/10-A3] (Eterna round: R96, puzzle: Same State NG 1) | µM | 0.273
CCGGCCACACAACAAGGCCAACAUGAGGAUCACCCAUGUACACAGGAUAUCGGCAGCCAAGGCUCCGAGAAGGGUGGUUCAAUU [Beage] (Eterna round: R96, puzzle: Same State NG 3) | µM | 0.145
AGAGGAGGAGCAGGAUAUUCGAAGGAGGACGUGGAAGAAGGGUUCAUGCGAUGACAUGAGGAUCACCCAUGUACCGCGCGUCGA [AK SSNG1-V2-15] (Eterna round: R96, puzzle: Same State NG 1) | µM | 0.126
